Hello, the source for this data is paper PMC5826148, in case you need it.

Measured MIC50, listed per entry for reference.
- Test system: Staphylococcus aureus
- protocolDescription: Spectrum of activity: S. aureus growth inhibition
- Type: cell-based
- conditionDetails: Staphylococcus aureus; LB medium, overnight; read-out: Antibacterial activity (MIC50) S. aureus

compound: COC(=O)c1cc2ccccc2cn1 [Fragment F4, Methyl isoquinoline-3-carboxylate]
MIC50: > 500 µM
--
compound: COC(=O)c1sc2ccccc2c1O
MIC50: 217 µM
--
compound: NCc1cccc(N2CCCCC2)n1
MIC50: 104 µM
--
compound: CNCc1ccccc1Oc1ccccc1 [Fragment F23, Methyl[(2-phenoxyphenyl)methyl]amine]
MIC50: > 500 µM
--
compound: O=C(O)CCc1c[nH]c2ccccc12
MIC50: > 500 µM
--
compound: Oc1ccc(Oc2ccccc2)cc1
MIC50: 348 µM
--
compound: O=C(O)c1csc2ccc(Cl)cc12
MIC50: > 500 µM
--
compound: CCOC(=O)c1c(N)sc(C)c1-c1ccccc1
MIC50: 344 µM
--
compound: O=c1cc(C(F)(F)F)c2ccc(O)cc2o1
MIC50: 198 µM
--
compound: O=C(O)c1ccc(-c2ccsc2)cc1
MIC50: > 500 µM
--
compound: CSc1cc(-c2ccc(F)cc2)n[nH]1
MIC50: > 500 µM
--
compound: Cc1oc(-c2ccc(Cl)cc2)cc1C(=O)N(C)C
MIC50: > 500 µM
--
compound: O=C(O)c1ccc(-c2ccccc2)s1
MIC50: > 500 µM
--
compound: Clc1ccc2nc(N3CCCNCC3)sc2c1
MIC50: > 500 µM
--
compound: OCc1csc(-c2ccc(C(F)(F)F)cc2)n1
MIC50: > 500 µM
